Assay explanation: volume of urine at 81 mg/kg
Format: ADME, organism-based
Set-up: dose 81 mg/kg
Settings: in vivo
Urine volume by entry:
The answer consists of two parts: a number and, after it, its unit.

// known answers, use as guide
Molecule | Urine volume
CC1(c2ccccc2)Cc2cc(OCC(=O)O)c(Cl)c(Cl)c2C1=O (stereo unspecified) | 35 mL
NS(=O)(=O)c1cc(C(=O)O)c(NCc2ccco2)cc1Cl [FUROSEMIDE] | 46 mL
NS(=O)(=O)c1cc2c(cc1Cl)NCNS2(=O)=O [HYDROCHLOROTHIAZIDE] | 33 mL
Cc1c(OCC(=O)O)cc2c(c1Cl)C(=O)C(C)(C1CCCC1)C2=O (stereo unspecified) | 25 mL
CCC1(C)C(=O)c2cc(OCC(=O)O)c(Cl)c(Cl)c2C1=O (stereo unspecified) | 31 mL

Next molecule, Urine volume to be filled in.
input: # get_value(readout='Urine volume', item= `CCC1(CC)C(=O)c2cc(OCC(=O)O)c(C)c(Cl)c2C1=O` )
output: 38 mL

###

Test system: Rattus norvegicus
Assay explanation: Compound was evaluated for diuretic activity administered orally in female rats measured as milliequivalents of Cl-x 100 / cage at 81 mg/kg
Type: functional, Urine
Settings: route oral
Activity strictly under 300 means T; at 300 or over means F.

Compound | Group label
Cc1c(OCC(=O)O)cc2c(c1Cl)C(=O)C(C)(C1CCCC1)C2=O (configuration not stated) | T

input: A record lists `Cc1c(OCC(=O)O)cc2c(c1Cl)C(=O)C1(CCCC1)C2=O` . Is its Activity below 300?
output: T

input: Then this compound: NS(=O)(=O)c1cc(C(=O)O)c(NCc2ccco2)cc1Cl [FUROSEMIDE]
output: F

###

Activity by entry:
Tested on: Rattus norvegicus
Assay explanation: Compound was evaluated for diuretic activity administered orally in female rats measured as milliequivalents of K+x 100 / cage at 81 mg/kg
Assay type: functional, Urine
Settings: route oral
Form: value (number only, do not type unit).

Compound | Number
Cc1c(OCC(=O)O)cc2c(c1Cl)C(=O)C1(CCCC1)C2=O [(ACYLARYLOXY)ACETIC ACID] | 29

input: # get_value(readout='Activity', item= NS(=O)(=O)c1cc2c(cc1Cl)NCNS2(=O)=O [HYDROCHLOROTHIAZIDE] )
output: 61

###

System: Rattus norvegicus
Assay explanation: Compound was evaluated for diuretic activity administered orally in female rats measured as milliequivalents of K+x 100 / cage at 27 mg/kg
Type: functional, Urine
Settings: route oral
Activity by entry:

// known answers, use as guide
Compound | Activity
Cc1c(OCC(=O)O)cc2c(c1Cl)C(=O)C1(CCCC1)C2=O [(ACYLARYLOXY)ACETIC ACID] | 32
NS(=O)(=O)c1cc2c(cc1Cl)NCNS2(=O)=O [HYDROCHLOROTHIAZIDE] | 61
NS(=O)(=O)c1cc(C(=O)O)c(NCc2ccco2)cc1Cl [FUROSEMIDE] | 60
Cc1c(OCC(=O)O)cc2c(c1Cl)C(=O)C(C)(C1CCCC1)C2=O (configuration not stated) | 22
CCC1(CC)C(=O)c2cc(OCC(=O)O)c(C)c(Cl)c2C1=O | 62
CC1(c2ccccc2)Cc2cc(OCC(=O)O)c(Cl)c(Cl)c2C1=O (configuration not stated) [INDACRINONE] | 61

Next compound, Activity to be filled in.
input: Observed Activity on Rattus norvegicus for CCC1(C)C(=O)c2cc(OCC(=O)O)c(Cl)c(Cl)c2C1=O (configuration not stated) , please.
output: 43
